Reference source: patent US5523314A

targetEntity: Human liver cathepsin D (Homo sapiens, UniProt P07339)
Construct: purchased Athens Research and Technology, Athens, Ga; host or cells: human liver
Sequence (P07339 169-412 limits assumed): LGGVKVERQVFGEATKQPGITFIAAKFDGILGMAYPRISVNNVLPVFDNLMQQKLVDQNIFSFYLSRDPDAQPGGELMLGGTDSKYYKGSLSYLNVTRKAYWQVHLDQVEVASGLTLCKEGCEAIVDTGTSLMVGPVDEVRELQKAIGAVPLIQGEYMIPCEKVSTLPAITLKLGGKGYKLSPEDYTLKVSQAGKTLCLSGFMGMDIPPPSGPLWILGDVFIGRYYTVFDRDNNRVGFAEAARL
Sequence (P07339 65-161 limits assumed): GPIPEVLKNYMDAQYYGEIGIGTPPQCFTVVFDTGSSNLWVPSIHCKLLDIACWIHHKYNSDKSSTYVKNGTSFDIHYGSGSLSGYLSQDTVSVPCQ
procedureSummary: Cathepsin D inhibition, fluorometric assay (Tables 5 and 6)
Assay type: biochemical
conditionsUsed: Compound Stock Concentration 8.3 μg/ml
Description: Human liver cathepsin D (Athens Research and Technology, Athens, Ga.) was diluted in assay buffer, 200 mM NaOAc, pH 4.5, 150 mM NaCl to 500 ng/mL and then 100 μL of this cathepsin D solution was added to each well of a 96 well plate with the exception of control wells which received just 100 μL of assay buffer. […] Blank and enzyme control wells each received 5 μL of the DMSO vehicle. […]
// reported inhibition at 8.3 µg/mL (stock) for each item listed

{"columns": ["molecularString", "inhibition at 8.3 µg/mL (stock), %"],
 "data": [
  ["CS(=O)(=O)Nc1cccc(C=C2SC(=S)N(CC(=O)O)C2=O)c1", 42],
  ["CCOc1cc(C=C2SC(=S)NC2=O)cc(CSc2ccccc2)c1O", 96],
  ["C=CCN1C(=O)C(=Cc2ccc(OCCCCCCC)c(OC)c2)SC1=S", 36],
  ["CCCCCCCOc1ccc(C=C2SC(=S)N(N(C)C)C2=O)cc1OC", 21],
  ["CCCCCCCOc1ccc(C=C2SC(=S)N(N)C2=O)cc1OC", 33],
  ["CC(C)(C)c1cc(C=C2SC(=S)NC2=O)cc(CSc2ccccc2)c1O", 94],
  ["CCOc1cc(C=C2SC(=S)N(CC(=O)O)C2=O)cc(CSc2ccccc2)c1O", 95],
  ["CCOc1cc(C=C2SC(=S)N(N(C)C)C2=O)ccc1O", 92],
  ["CCCCCOc1ccc(C=C2SC(=S)NC2=O)cc1OC", 95]
]}

----------
targetEntity: Human liver cathepsin D (Homo sapiens)
Construct: purchased Athens Research and Technology, Athens, Ga; host or cells: human liver
procedureSummary: Cathepsin D inhibition, fluorometric assay (Tables 5 and 6)
Assay type: biochemical
// reported IC50 for each item listed
quantityKind: IC50

{"columns": ["compound", "targetEntity", "quantityKind", "observedMeasurement"],
 "data": [
  ["CC(C)(C)c1cc(C=C2SC(=S)NC2=O)cc(C(C)(C)C)c1O [Example 28]", "Human liver cathepsin D (Homo sapiens)", "IC50", "3.1 µM"],
  ["O=C1NC(=S)SC1=Cc1ccc(-c2ccccc2)cc1 [Example 42]", "Human liver cathepsin D (Homo sapiens)", "IC50", "1.7 µM"],
  ["CCCCCOc1c(OC)cc(C=C2SC(=S)NC2=O)cc1OC [Example 70]", "Human liver cathepsin D (Homo sapiens)", "IC50", "5.4 µM"],
  ["CCCCCCCOc1ccc(C=C2SC(=S)N(N(C)C)C2=O)cc1OCCCCCCC [Example 93]", "Human liver cathepsin D (Homo sapiens)", "IC50", "7.5 µM"]
]}

----------
targetEntity: Human liver cathepsin D (Homo sapiens, UniProt P07339)
Construct: purchased Athens Research and Technology, Athens, Ga; host or cells: human liver
procedureSummary: Cathepsin D inhibition, fluorometric assay (Tables 5 and 6)
Format: biochemical
conditionsUsed: Compound Stock Concentration 4.15 μg/ml

{"columns": ["molecularString", "inhibition at 4.15 µg/mL (stock)"],
 "data": [
  ["CCOc1cc(C=C2SC(=S)N(N(C)C)C2=O)ccc1O", "79%"],
  ["O=C1NC(=S)SC1=Cc1cccc(Oc2ccccc2)c1", "64%"],
  ["CCCCCCCOc1ccc(C=C2SC(=S)NC2=O)cc1OC", "69.5%"],
  ["COc1cc(C=C2SC(=S)NC2=O)cc(OC)c1O", "53%"],
  ["CCCCCOc1ccc(C=C2SC(=S)NC2=O)cc1OC", "49.5%"],
  ["CCOc1cc(C=C2SC(=S)N(C3CCCCC3)C2=O)ccc1O", "51%"],
  ["CCCCCOc1ccc(C=C2SC(=S)NC2=O)cc1", "60.5%"],
  ["CCCCCOc1ccc(C=C2SC(=S)N(CC(=O)O)C2=O)cc1OCCCCC", "72%"],
  ["O=C1NC(=S)SC1=Cc1ccc(-c2ccccc2)cc1", "78%"],
  ["CN1C(=O)C(=Cc2ccc(O)c(C(C)(C)C)c2)SC1=S", "74%"],
  ["CCOc1cc(C=C2SC(=S)NC2=O)cc(CSc2ccccc2)c1O", "88%"],
  ["COc1ccc(C(=C2SC(=S)NC2=O)c2ccccc2)cc1", "40%"],
  ["O=C1NC(=S)SC1=Cc1cc(Cl)c(O)c(Cl)c1", "90%"],
  ["CCOc1cc(C=C2SC(=S)NC2=O)ccc1O", "75%"],
  ["CCCCCCCOc1ccc(C=C2SC(=S)N(N(C)C)C2=O)cc1", "47%"],
  ["CCCCCCOc1ccc(C=C2SC(=S)NC2=O)cc1OC", "53.7%"],
  ["O=C1NC(=S)SC1=Cc1ccc2ccccc2c1", "57%"]
]}
